Value source: patent US20120045393A1

Each entry below carries its measured EC50, system: LHRH binding sites on human ovarian cancer cells (EFO-27).
Non-standard residues stand in square brackets, D forms with d. Residues, ends and D or L forms follow the SMILES beside them. *: point of attachment. DOTA = O=C(O)CN1CCN(CC(=O)O)CCN(CC(=O)*)CCN(CC(=O)O)CC1; Bpa = N[C@@H](Cc1ccc(C(=O)c2ccccc2)cc1)C(=O)O; Phe(4-Cl) = N[C@@H](Cc1ccc(Cl)cc1)C(=O)O; azaGly = NNC(=O)O; Sar = CNCC(=O)O
Your answer should be a plain number; it is taken to be in nM.

| compound | EC50 / nM |
| --- | --- |
| CN(CC(=O)N[C@@H](Cc1ccc(Cl)cc1)C(=O)N[C@@H](Cc1c[nH]c2ccccc12)C(=O)N[C@@H](CO)C(=O)N[C@@H](Cc1c[nH]cn1)C(=O)N[C@H](CCCNC(=N)N)C(=O)N[C@@H](Cc1c[nH]c2ccccc12)C(=O)N[C@@H](Cc1ccc(C(=O)c2ccccc2)cc1)C(=O)N1CCC[C@H]1C(=O)NNC(N)=O)C(=O)CN1CCN(CC(=O)O)CCN(CC(=O)O)CCN(CC(=O)O)CC1 [BRU-2719] ({DOTA}-[Sar][Phe(4-Cl)]WSH[dR]W[Bpa]P[azaGly]-NH2) | 630 |

Now consider the entry below.
I'm curious: which EC50 was measured for CNCC(=O)N[C@@H](Cc1c[nH]cn1)C(=O)N[C@@H](Cc1c[nH]c2ccccc12)C(=O)N[C@@H](CO)C(=O)N[C@@H](Cc1c[nH]cn1)C(=O)N[C@H](CCCNC(=N)N)C(=O)N[C@@H](Cc1c[nH]c2ccccc12)C(=O)N[C@@H](Cc1ccc(O)cc1)C(=O)N1CCC[C@H]1C(=O)NNC(N)=O [BRU-2439, [Sar^1, Darg^6, azaGly^10]LHRH-II] (HELM PEPTIDE1{[Sar].H.W.S.H.[dR].W.Y.P.[O=C(NN[*:1])[*:2]].[am]}$$$$V2.0; N-terminus assumed) tested on LHRH binding sites on human ovarian cancer cells (EFO-27)?;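 also: Cell-associated radioactivity on confluent EFO-27 monolayers in 96-well plates, measured by microplate scintillation counting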
250
